Parameter IC50, tested on Neprilysin (Homo sapiens, UniProt P08473), listed per item.
Sequence (P08473 whole entry): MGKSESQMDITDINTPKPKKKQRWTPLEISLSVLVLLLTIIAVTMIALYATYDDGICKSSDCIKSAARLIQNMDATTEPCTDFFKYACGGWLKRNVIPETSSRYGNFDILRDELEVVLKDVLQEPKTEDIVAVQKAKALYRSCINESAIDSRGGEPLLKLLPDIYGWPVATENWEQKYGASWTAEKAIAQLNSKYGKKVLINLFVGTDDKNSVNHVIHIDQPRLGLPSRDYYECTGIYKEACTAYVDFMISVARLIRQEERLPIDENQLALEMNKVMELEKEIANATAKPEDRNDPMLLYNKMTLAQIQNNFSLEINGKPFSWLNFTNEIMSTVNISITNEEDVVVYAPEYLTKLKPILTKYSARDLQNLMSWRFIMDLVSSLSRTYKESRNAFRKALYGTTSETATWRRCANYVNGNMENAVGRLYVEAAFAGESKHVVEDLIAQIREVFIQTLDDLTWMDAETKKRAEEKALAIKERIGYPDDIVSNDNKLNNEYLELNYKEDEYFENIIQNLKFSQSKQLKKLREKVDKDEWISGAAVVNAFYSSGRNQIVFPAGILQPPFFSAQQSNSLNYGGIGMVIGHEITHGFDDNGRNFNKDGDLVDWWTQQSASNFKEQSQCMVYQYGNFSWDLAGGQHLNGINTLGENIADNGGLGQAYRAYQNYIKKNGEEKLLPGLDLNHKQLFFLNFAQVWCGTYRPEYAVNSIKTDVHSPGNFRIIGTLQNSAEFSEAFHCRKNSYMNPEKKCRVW
# output: bare number, implied unit nM

molecule	quantity	readout unit	recorded value
SC[C@@H](Cc1ccc(-c2ccccc2)cc1)c1nc2cnccc2[nH]1	IC50	nM	30
SC[C@@H](Cc1ccccc1)c1nc2cnccc2[nH]1	IC50	nM	40

Find IC50 (Neprilysin (Homo sapiens, UniProt P08473)) for the entry O=C(N[C@H]1CCS[C@H]2CCC[C@@H](C(=O)O)N2C1=O)[C@@H](S)Cc1ccccc1 [OMAPATRILAT]
5

Quick check: IC50 on Neprilysin (Homo sapiens, UniProt P08473), item COC(c1ccccc1)c1cnc(C(CS)Cc2ccccc2)[nH]1 (centres undefined) ?
1700
